experiment: Compound was evaluated for cytotoxicity to KB cells (derived from human epidermoid carcinoma); format: cell-based; settings: read-out: ED50 (the source's name)
ATTRIBUTE MEASURED: CC50 (µg/mL)
Give the value in µg/mL but do not write µg/mL after it.

Known results for molecules:
{"MOLECULE": "Nc1nc(Cl)c2ncn(C3CC(O)C(CO)C3)c2n1 (configuration not stated)", "U": "µg/mL", "ASSAY RESULT": 62}
{"MOLECULE": "Nc1nc(Cl)c2nnn(C3CC(O)C(CO)C3)c2n1 (configuration not stated)", "U": "µg/mL", "ASSAY RESULT": 10}

For this molecule ( `Nc1nc(O)c2ncn([C@@H]3C[C@H](CO)[C@@H](O)C3)c2n1` ), measured CC50 is 95
